This section presents binders with their documented koff values.
Target: T1, human CTGF (antigen of the Biacore assays) (human, UniProt P29279 27-349)
T1 construct: also called antigen human CTGF; human CTGF protein
T1 sequence (looked up): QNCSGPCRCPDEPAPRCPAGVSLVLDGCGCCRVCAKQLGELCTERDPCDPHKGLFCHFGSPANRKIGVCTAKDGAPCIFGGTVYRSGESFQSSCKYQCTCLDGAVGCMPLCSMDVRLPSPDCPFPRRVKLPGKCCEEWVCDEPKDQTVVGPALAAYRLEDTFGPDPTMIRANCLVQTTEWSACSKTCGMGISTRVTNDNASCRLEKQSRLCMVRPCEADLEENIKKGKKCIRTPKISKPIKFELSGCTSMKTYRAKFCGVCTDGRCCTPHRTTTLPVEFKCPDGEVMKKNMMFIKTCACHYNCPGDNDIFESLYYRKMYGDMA
Test: Biacore, antibody captured on Protein A, CTGF in flow, 1:1 fit
Your answer should be a plain number; it is taken to be in s⁻¹.

# example entries with known answers
Binder	Property Label	Value Reported
Hu147-32wk (antibody, human IgG1, kappa, V domains shown) VH: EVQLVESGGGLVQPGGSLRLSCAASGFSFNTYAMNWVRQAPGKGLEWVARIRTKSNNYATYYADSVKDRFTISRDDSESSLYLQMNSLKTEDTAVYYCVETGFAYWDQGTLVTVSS VL: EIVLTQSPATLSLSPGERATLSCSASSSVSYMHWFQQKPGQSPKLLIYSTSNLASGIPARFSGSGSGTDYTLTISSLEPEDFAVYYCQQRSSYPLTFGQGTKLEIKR	koff	0.0133
Hu147-33wk (antibody, human IgG1, kappa, V domains shown) VH: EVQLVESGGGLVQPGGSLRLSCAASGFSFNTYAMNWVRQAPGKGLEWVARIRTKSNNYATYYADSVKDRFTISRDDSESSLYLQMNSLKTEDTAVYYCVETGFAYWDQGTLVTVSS VL: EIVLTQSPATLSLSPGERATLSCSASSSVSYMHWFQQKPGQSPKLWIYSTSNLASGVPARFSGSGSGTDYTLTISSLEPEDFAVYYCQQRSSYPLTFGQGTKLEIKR	koff	0.0104
Hu164-69wl (antibody, human IgG1, lambda, V domains shown) VH: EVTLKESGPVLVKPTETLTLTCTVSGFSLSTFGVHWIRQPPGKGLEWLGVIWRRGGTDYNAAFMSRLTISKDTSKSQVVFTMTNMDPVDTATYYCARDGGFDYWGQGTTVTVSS VL: ESVVTQPPSVSGAPGQRVTISCRSSIGAVTTSNYANWVQQLPGTAFKGLIGGTSNRAPGVPDRFSGSKSGTSASLAITGLQAEDEADYYCALWYSTHYVFGGGTKLTVLG	koff	0.028
chimeric antibody Ch164 (antibody, human IgG1, lambda, V domains shown) VH: QVQLKQSGPGLVQPSQSLSITCTVSGFSLTTFGVHWIRQSPGKGLEWLGVIWRRGGTDYNAAFMSRLSITKDNSRSHVFFKMTSLQTDDSAIYYCARDGGFDYWGQGTTLTVSS VL: QAVVTQESALTTSPGGTVILTCRSSIGAVTTSNYANWVQEKPDHLFTGLIGGTSNRAPGVPVRFSGSLIGDKAALTITGAQAEDDAMYFCALWYSTHYVFGGGTKVTVLG	koff	0.00883
Hu95-21wk (antibody, human IgG1, kappa, V domains shown) VH: EVQLVQSGAEVKKPGASVKVSCKASGFTFTNYDIHWVRQAPGQRLEWIGLVYPYNGGTAYNQKFKDRATLTFDTSASTAYMELSSLRSEDTAVYYCARWGLIPGTTSYFDVWGQGTTVTVSS VL: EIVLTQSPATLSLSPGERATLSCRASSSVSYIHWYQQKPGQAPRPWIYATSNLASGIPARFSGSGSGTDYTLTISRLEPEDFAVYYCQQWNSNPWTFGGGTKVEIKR	koff	0.0303
Hu95-42wk (antibody, human IgG1, kappa, V domains shown) VH: EVQLVQSGAEVKKPGASVKVSCKASGFTFTNYDIHWVKQAPGQRLEWIGLVYPYNGGTAYNQKFKDKATLTFDTSASTAYMELSSLRSEDTAVYYCARWGLIPGTTSYFDVWGQGTTVTVSS VL: EIVLTQSPATLSLSPGERATLSCRASSSVSYIHWYQQKPGQSPRPWIYATSNLASGVPARFSGSGSGTSYTLTISRLEPEDFAVYYCQQWNSNPWTFGGGTKVEIKR	koff	0.0191
Hu147-14wk (antibody, human IgG1, kappa, V domains shown) VH: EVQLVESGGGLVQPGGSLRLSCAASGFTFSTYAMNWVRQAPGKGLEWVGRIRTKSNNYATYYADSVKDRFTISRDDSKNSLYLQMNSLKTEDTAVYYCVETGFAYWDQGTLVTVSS VL: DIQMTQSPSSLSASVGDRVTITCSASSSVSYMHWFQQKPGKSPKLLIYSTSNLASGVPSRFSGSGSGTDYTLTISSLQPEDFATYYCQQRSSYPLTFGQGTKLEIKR	koff	0.0554
Hu147-34wk (antibody, human IgG1, kappa, V domains shown) VH: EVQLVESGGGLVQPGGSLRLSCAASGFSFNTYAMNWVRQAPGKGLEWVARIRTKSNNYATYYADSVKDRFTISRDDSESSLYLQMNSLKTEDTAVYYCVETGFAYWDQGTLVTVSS VL: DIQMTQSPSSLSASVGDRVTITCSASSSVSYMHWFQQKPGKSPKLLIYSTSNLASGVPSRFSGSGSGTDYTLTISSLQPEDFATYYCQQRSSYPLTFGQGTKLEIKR	koff	0.0155

Request: Can you look up the measured koff of Hu147-11wk (antibody, human IgG1, kappa, V domains shown) VH: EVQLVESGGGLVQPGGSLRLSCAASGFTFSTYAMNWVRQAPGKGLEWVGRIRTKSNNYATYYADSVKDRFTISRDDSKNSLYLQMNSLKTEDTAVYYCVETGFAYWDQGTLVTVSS VL: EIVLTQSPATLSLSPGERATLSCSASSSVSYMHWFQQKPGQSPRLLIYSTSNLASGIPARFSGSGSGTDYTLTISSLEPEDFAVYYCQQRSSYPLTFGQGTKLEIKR for me?
Result: 0.0336

Request: Can you look up the measured koff of Hu147-12wk (antibody, human IgG1, kappa, V domains shown) VH: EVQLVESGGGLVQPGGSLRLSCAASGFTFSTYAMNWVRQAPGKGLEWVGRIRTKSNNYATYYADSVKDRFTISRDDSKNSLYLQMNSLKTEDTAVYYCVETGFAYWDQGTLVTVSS VL: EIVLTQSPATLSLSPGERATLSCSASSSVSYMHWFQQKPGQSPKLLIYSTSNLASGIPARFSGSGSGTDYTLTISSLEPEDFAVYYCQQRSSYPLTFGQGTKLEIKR for me?
Result: 0.033

Origin of the recorded values: patent US20220324953A1
